assay: in vivo; conditions: C57BL/6J, mouse, po, 24.8 mg/kg
Description: Half life in C57BL/6J mouse at 24.8 mg/kg, po and 1.8 mg/kg, iv by LC-MS/MS analysis
QUANTITY: half-life (h)
State the answer as a number, implicitly in h.

-- ask Return reported half-life; argument: COC(=O)Nc1nc(C)c(S(=O)(=O)N2CCN(C[C@H](C)Nc3ncnc4c(-c5cn(C)nc5C(F)(F)F)cccc34)CC2)s1
-- reply 1.69

* * *

assay: in vivo; conditions: C57BL/6J, mouse, lung, po, 26.5 mg/kg
Description: Total Cmax in C57BL/6J mouse lungs at 26.5 mg/kg, po and 2 mg/kg, iv by LC-MS/MS analysis
QUANTITY: Cmax
Please state the number and follow it with the unit.

-- ask Query (compound): COC(=O)Nc1nc(C)c(S(=O)(=O)N2CCN(C[C@H](C)Nc3ncnc4c(-c5ccc(C)nc5)cccc34)CC2)s1 ; field requested: Cmax
-- reply 15400 ng/mL

* * *

test: in vivo; conditions: C57BL/6J, mouse, lungs, po, 24.3 mg/kg
Description: Total Cmax in C57BL/6J mouse lungs at 24.3 mg/kg, po and 1.4 mg/kg, iv by UPLC-MS/MS analysis
QUANTITY: Cmax (ng/mL)
Respond with the bare value in ng/mL.

-- ask Consider the compound shown here: COC(=O)Nc1nc(C)c(S(=O)(=O)N2CCN(C[C@H](C)Nc3ncnc4c(C)csc34)CC2)s1 What is its recorded Cmax?
-- reply 25300

* * *

assay: in vivo; conditions: C57BL/6J, mouse, lung, po, 30 mg/kg
QUANTITY: AUC(0-t) (ng·h/mL)
API: value field is a number in ng·h/mL; no unit string.

Please review the entries below; each comes with its answer.
COC(=O)Nc1nc(C)c(S(=O)(=O)N2CCN(C[C@H](C)Nc3ncnc4c(-c5cccnc5C)cccc34)CC2)s1; 24300
COC(=O)Nc1nc(C)c(S(=O)(=O)N2CCN(C[C@H](C)Nc3ncnc4c(-c5cccc(CN6CCCC6)c5)cccc34)CC2)s1; 19500

-- ask Could you tell me which AUC(0-t) is on file for COC(=O)Nc1nc(C)c(S(=O)(=O)N2CCN(C[C@H](C)Nc3ncnc4c(-c5cccc(CN(C)C)c5)cccc34)CC2)s1 ?
-- reply 43200

-- ask Need AUC(0-t), item COC(=O)Nc1nc(C)c(S(=O)(=O)N2CCN(C[C@H](C)Nc3ncnc4c(-c5sc(C)nc5C)cccc34)CC2)s1
-- reply 56200

-- ask Which AUC(0-t) is reported for this compound? COC(=O)Nc1nc(C)c(S(=O)(=O)N2CCN(C[C@H](C)Nc3ncnc4c(-c5c(C)noc5C)cccc34)CC2)s1
-- reply 25800

* * *

assay: in vivo; conditions: C57BL/6J, mouse, po, 24.3 mg/kg
Description: Oral bioavailability in C57BL/6J mouse at 24.3 mg/kg by UPLC-MS/MS analysis
QUANTITY: bioavailability (%)
Quick note: give the figure in %, leave out the unit.

-- ask Bench note: what bioavailability did COC(=O)Nc1nc(C)c(S(=O)(=O)N2CCN(C[C@H](C)Nc3ncnc4c(C)csc34)CC2)s1 show?
-- reply 85

* * *

experiment: in vivo; settings: C57BL/6J, mouse, po, 26.5 mg/kg
Description: Oral bioavailability in C57BL/6J mouse at 26.5 mg/kg by LC-MS/MS analysis
QUANTITY: bioavailability (%)
Note: unit % is implicit; provide only the numeric part.

-- ask Using the record for COC(=O)Nc1nc(C)c(S(=O)(=O)N2CCN(C[C@H](C)Nc3ncnc4c(-c5ccc(C)nc5)cccc34)CC2)s1 , report its bioavailability.
-- reply 87

* * *

assay: in vivo; details: C57BL/6J, mouse, po, 26.5 mg/kg
Description: Half life in C57BL/6J mouse at 26.5 mg/kg, po and 2 mg/kg, iv by LC-MS/MS analysis
QUANTITY: half-life (h)
State just the number; it will be interpreted in h.

-- ask I would be grateful if you could share the reported half-life for COC(=O)Nc1nc(C)c(S(=O)(=O)N2CCN(C[C@H](C)Nc3ncnc4c(-c5ccc(C)nc5)cccc34)CC2)s1 .
-- reply 1.67

* * *

Below, each entry is listed with its recorded fraction unbound at 5 h, 0.5 µM.
assay: Protein binding in human plasma assessed as fraction unbound at 0.5 uM measured after 5 hrs by LC-MS/MS analysis

COC(=O)Nc1nc(C)c(S(=O)(=O)N2CCN(C[C@H](C)Nc3ncnc4c(-c5sc(C)nc5C)cccc34)CC2)s1; 0.0002
COC(=O)Nc1nc(C)c(S(=O)(=O)N2CCN(C[C@H](C)Nc3ncnc4c(-c5cccc(CN(C)C)c5)cccc34)CC2)s1; 0.0003
COC(=O)Nc1nc(C)c(S(=O)(=O)N2CCN(C[C@H](C)Nc3ncnc4c(-c5c(C)noc5C)cccc34)CC2)s1; < 0.01

-- ask Given the entry COC(=O)Nc1nc(C)c(S(=O)(=O)N2CCN(C[C@H](C)Nc3ncnc4c(-c5cccc(CN6CCCC6)c5)cccc34)CC2)s1 , report its measured fraction unbound at 5 h, 0.5 µM.
-- reply < 0.01

-- ask If you can, please state the reported fraction unbound at 5 h, 0.5 µM value of COC(=O)Nc1nc(C)c(S(=O)(=O)N2CCN(C[C@H](C)Nc3ncnc4c(-c5cn(C)nc5C(F)(F)F)cccc34)CC2)s1 .
-- reply < 0.01

-- ask Which measured fraction unbound at 5 h, 0.5 µM value corresponds to Cc1csc2c(N[C@@H](C)CN3CCN(S(=O)(=O)c4ccc(Cl)c(Cl)c4)CC3)ncnc12 ?
-- reply 0.004

-- ask What fraction unbound at 5 h, 0.5 µM value was documented for this molecule, COC(=O)Nc1nc(C)c(S(=O)(=O)N2CCN(C[C@H](C)Nc3ncnc4c(C)csc34)CC2)s1 ?
-- reply < 0.01

-- ask Name the recorded fraction unbound at 5 h, 0.5 µM for COC(=O)Nc1nc(C)c(S(=O)(=O)N2CCN(C[C@H](C)Nc3ncnc4c(-c5ccc(C)nc5)cccc34)CC2)s1 .
-- reply < 0.01

* * *

// reported fraction unbound at 5 h, 0.5 µM for each item listed
assay: Protein binding in mouse plasma assessed as fraction unbound at 0.5 uM measured after 5 hrs by LC-MS/MS analysis

COC(=O)Nc1nc(C)c(S(=O)(=O)N2CCN(C[C@H](C)Nc3ncnc4c(-c5ccc(C)nc5)cccc34)CC2)s1; 0.0011

-- ask Returns the measured fraction unbound at 5 h, 0.5 µM for the input molecule. Input: Cc1csc2c(N[C@@H](C)CN3CCN(S(=O)(=O)c4ccc(Cl)c(Cl)c4)CC3)ncnc12
-- reply 0.0065

-- ask # lookup: fraction unbound at 5 h, 0.5 µM of COC(=O)Nc1nc(C)c(S(=O)(=O)N2CCN(C[C@H](C)Nc3ncnc4c(-c5cn(C)nc5C(F)(F)F)cccc34)CC2)s1
-- reply 0.0015

-- ask Endpoint output: fraction unbound at 5 h, 0.5 µM of COC(=O)Nc1nc(C)c(S(=O)(=O)N2CCN(C[C@H](C)Nc3ncnc4c(-c5sc(C)nc5C)cccc34)CC2)s1 . Value?
-- reply 0.0372

-- ask Which fraction unbound at 5 h, 0.5 µM is reported for this molecule? COC(=O)Nc1nc(C)c(S(=O)(=O)N2CCN(C[C@H](C)Nc3ncnc4c(-c5cccc(CN6CCCC6)c5)cccc34)CC2)s1
-- reply 0.0059

-- ask Please look up its fraction unbound at 5 h, 0.5 µM: COC(=O)Nc1nc(C)c(S(=O)(=O)N2CCN(C[C@H](C)Nc3ncnc4c(C)csc34)CC2)s1
-- reply 0.0023

-- ask I'd like to know its fraction unbound at 5 h, 0.5 µM. The molecule in question is COC(=O)Nc1nc(C)c(S(=O)(=O)N2CCN(C[C@H](C)Nc3ncnc4c(-c5cccc(CN(C)C)c5)cccc34)CC2)s1
-- reply 0.0124

-- ask Quick one: fraction unbound at 5 h, 0.5 µM for COC(=O)Nc1nc(C)c(S(=O)(=O)N2CCN(C[C@H](C)Nc3ncnc4c(-c5c(C)noc5C)cccc34)CC2)s1 ?
-- reply 0.0043

-- ask State the recorded fraction unbound at 5 h, 0.5 µM for this entry: COC(=O)Nc1nc(C)c(S(=O)(=O)N2CCN(C[C@H](C)Nc3ncnc4c(-c5cccnc5C)cccc34)CC2)s1
-- reply 0.0616

* * *

test: in vivo; details: C57BL/6J, mouse, lung and plasma, po, 24.3 mg/kg
Description: Ratio of total AUC in lung to plasma in C57BL/6J mouse at 24.3 mg/kg, po and 1.4 mg/kg, iv by UPLC-MS/MS analysis
QUANTITY: Kp
Could you respond with only the numeric value?

-- ask If you can, please state the reported Kp value of COC(=O)Nc1nc(C)c(S(=O)(=O)N2CCN(C[C@H](C)Nc3ncnc4c(C)csc34)CC2)s1 .
-- reply 0.27

* * *

test: in vivo; settings: C57BL/6J, mouse, po, 30 mg/kg
QUANTITY: bioavailability (%)
The reply should be a number in %, with the unit left off.

Examples with answers:
COC(=O)Nc1nc(C)c(S(=O)(=O)N2CCN(C[C@H](C)Nc3ncnc4c(-c5cccnc5C)cccc34)CC2)s1; 67
COC(=O)Nc1nc(C)c(S(=O)(=O)N2CCN(C[C@H](C)Nc3ncnc4c(-c5c(C)noc5C)cccc34)CC2)s1; 92
COC(=O)Nc1nc(C)c(S(=O)(=O)N2CCN(C[C@H](C)Nc3ncnc4c(-c5sc(C)nc5C)cccc34)CC2)s1; 64
COC(=O)Nc1nc(C)c(S(=O)(=O)N2CCN(C[C@H](C)Nc3ncnc4c(-c5cccc(CN6CCCC6)c5)cccc34)CC2)s1; 7

-- ask Which bioavailability reading was recorded for the compound COC(=O)Nc1nc(C)c(S(=O)(=O)N2CCN(C[C@H](C)Nc3ncnc4c(-c5cccc(CN(C)C)c5)cccc34)CC2)s1 ?
-- reply 16
